Values from paper PMC4208696

# ASSAY_SYSTEM: full-length mammalian calmodulin (CaM_(1–148)) (mammalian (no species named), UniProt P0DP23 1-149)
# ASSAY_COMMENT: fluorescence polarisation
MEASUREMENT_TYPE: pKd
Field pKd (float): negative decimal logarithm of the concentration in molar.

input: What does the record list as pKd for {5,6‑carboxyfluorescein}-KSKKAVWHKLLSKQRRRAVVACFRMTPLYN-NH2 [Fl–hRyR1(3614–3643)p: hRyR1(3614–3643)p with a 5,6-carboxyfluorescein moiety at the N-terminus] ?
output: 5.17
